- TEST_SUMMARY: Plasma stability assay, mouse plasma
- CONDITION_SET: mouse plasma, 37°C, 24 h
Starred links: 1 amine or outer side, 2 acyl side, 3 side chain; linkers in the order of their positions; H or OH if unused. Positions of bridges follow the written chain, without caps; N, C: chain ends. Non-standard residues stand in square brackets, D forms with d. Residues, ends and D or L forms follow the SMILES beside them. *: point of attachment. DOTA = O=C(O)CN1CCN(CC(=O)O)CCN(CC(=O)*)CCN(CC(=O)O)CC1; mXylylene = c1cc(C[*:1])cc(C[*:2])c1; Trx = NC[C@H]1CC[C@H](C(=O)O)CC1; X2 = O=C(CN1CCC(N[*:1])CC1)[*:2]; Dap = NC[C@H](N)C(=O)O
MEASURED_QUANTITY: % intact compound remaining (incubation time) (%)
Answers are plain numbers, in %.

// below: answered molecules
CC(C)C[C@@H]1NC(=O)[C@H](Cc2c[nH]c3ccccc23)NC(=O)[C@H](CC(=O)O)NC(=O)[C@H]2CCCN2C(=O)[C@H](CCC(=O)O)NC(=O)[C@@H]2CSCc3cccc(c3)CSC[C@@H](C(N)=O)NC(=O)[C@H](CNC(=O)C[C@H](NC(=O)[C@H](CO)NC(=O)CN3CCN(CC(=O)O)CCN(CC(=O)O)CCN(CC(=O)O)CC3)C(=O)N2)NC(=O)[C@H](Cc2c[nH]c3ccccc23)NC(=O)[C@H]([C@@H](C)O)NC1=O [3BP-4257] ({DOTA}-SDCE[dP]DWLTW[Dap]C-NH2; lactam 2-11; linker 3-12 via mXylylene) | 94
CC(C)C[C@@H]1NC(=O)[C@H](Cc2c[nH]c3ccccc23)NC(=O)[C@H](CC(=O)O)NC(=O)[C@H]2CCCN2C(=O)[C@H](CCC(=O)O)NC(=O)[C@@H]2CSCc3cccc(c3)CSC[C@@H](C(N)=O)NC(=O)[C@H](CNC(=O)C[C@H](NC(=O)[C@H]3CC[C@H](CNC(=O)CN4CCN(CC(=O)O)CCN(CC(=O)O)CCN(CC(=O)O)CC4)CC3)C(=O)N2)NC(=O)[C@H](Cc2c[nH]c3ccccc23)NC(=O)[C@H]([C@@H](C)O)NC1=O [3BP-4258] ({DOTA-Trx}-DCE[dP]DWLTW[Dap]C-NH2; lactam 1-10; linker 2-11 via mXylylene) | 93
CC(C)C[C@@H]1NC(=O)[C@H](Cc2c[nH]c3ccccc23)NC(=O)[C@H](CC(=O)O)NC(=O)[C@H]2CCCN2C(=O)[C@H](CCC(=O)O)NC(=O)[C@@H](NC(=O)[C@H](Cc2ccc(O)cc2)NC(=O)[C@@H](NC(=O)CN2CCC(NC(=O)CN3CCN(CC(=O)O)CCN(CC(=O)O)CCN(CC(=O)O)CC3)CC2)C(C)C)CSCc2cccc(c2)CSC[C@@H](C(N)=O)NC(=O)[C@H](CO)NC(=O)[C@H](Cc2c[nH]c3ccccc23)NC(=O)[C@H]([C@@H](C)O)NC1=O [3BP-3905] ({DOTA}-[X2]VYCE[dP]DWLTWSC-NH2; linker 4-13 via mXylylene) | 83

With those in mind, consider the next molecule.
Prompt: Fill in reported % intact compound remaining (incubation time) for this entry: CC(C)C[C@@H]1NC(=O)[C@H](Cc2c[nH]c3ccccc23)NC(=O)[C@H](CC(N)=O)NC(=O)[C@H]2CCCN2C(=O)[C@H](CCC(=O)O)NC(=O)[C@@H](NC(=O)[C@H](Cc2ccc(O)cc2)NC(=O)[C@@H](NC(=O)CN2CCC(NC(=O)CN3CCN(CC(=O)O)CCN(CC(=O)O)CCN(CC(=O)O)CC3)CC2)C(C)C)CSCc2cccc(c2)CSC[C@@H](C(N)=O)NC(=O)[C@H](CO)NC(=O)[C@H](Cc2c[nH]c3ccccc23)NC(=O)[C@H]([C@@H](C)O)NC1=O [3BP-4103] ({DOTA}-[X2]VYCE[dP]NWLTWSC-NH2; linker 4-13 via mXylylene)
Response: 81
